experiment: Neurotoxicity MTT assay on neuroblastoma SH-SY5Y cells; format: cell-based; settings: human
# maps each entry to its viability at 1 µM

- COMPOUND: "COc1ccc(C2CC(=O)C3=C(C2)N=c2s/c(=C\\c4ccc(OCCNCCc5c[nH]c6ccccc56)cc4)c(=O)n2C3c2c[nH]c3ccccc23)cc1 (centres unmarked) [Compound 37]"
  viability at 1 µM: "96.1%"
- COMPOUND: "CC1(C)CC(=O)C2=C(C1)N=c1s/c(=C\\c3ccc(OCCNCCc4c[nH]c5ccccc45)cc3)c(=O)n1C2c1c[nH]c2ccccc12 (centres unmarked) [Compound 35]"
  viability at 1 µM: "98.9%"
